tgt: antibody C1
test-method-notes: peptide competition ELISA; competitor for C1
pIC50: −log10 of the molar value.
pIC50 values, listed per item

binder | pIC50
YEVLGEEF [nearest-neighbor 8-mer YEVLGEEF] | < 3.00
VEVNGEVF [nearest-neighbor 8-mer VEVNGEVF] | < 3.00
